measurement description: chemical genetic growth profiling, strain panel (AID 1159580);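 also: tested at 20 µM; growth read once vehicle control cultures reached saturation at 30 °C; 1 = growth at the plate median or of vehicle wells; lower values mean less growth of the strain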
run conditions: S. cerevisiae deletion strains, growth OD, locus YDR101C, strain arx1, stronger effect = lower value
In all, about 5,500 compounds went through this assay and about 2,000 (36%) were called active. Inconclusive results (about 18%) are left out. Some of the results follow.

compound | normalized growth
NC(=O)c1ccc[n+]([C@@H]2O[C@H](COP(=O)([O-])OP(=O)(O)OC[C@H]3O[C@@H](n4cnc5c(N)ncnc54)[C@H](OP(=O)(O)O)[C@@H]3O)[C@@H](O)[C@H]2O)c1 | 1.01
CC1COc2c(N3CCN(C)CC3)c(F)cc3c(=O)c(C(=O)O)cn1c23 (centres undefined) | 1
CCn1cc(C(=O)O)c(=O)c2cc(F)c(N3CCNCC3)nc21 | 1
CCn1cc(C(=O)O)c(=O)c2cc(F)c(N3CCNC(C)C3)c(F)c21 (centres undefined) | 0.988

---

measurement description: chemical genetic growth profiling, strain panel (AID 1159580)
run conditions: S. cerevisiae deletion strains, growth OD, locus YHR200W, strain rpn10, stronger effect = lower value
Screen size: about 5,500 compounds; about 2,000 (36%) were called active. Roughly 18% stayed inconclusive and do not appear here. The list shows a part of the results.
measurement label: normalized growth

test smiles | value
NCCCS(=O)(=O)O | 0.993 (inactive)
C[n+]1c2cc(N)ccc2cc2ccc(N)cc21 | 0.682 (active)
CN(C)CCN(Cc1ccccc1)c1ccccn1 | 1 (inactive)
CN(C)CCN(Cc1cccs1)c1ccccn1 | 1.01 (inactive)
O=c1cccc2ccc(O)c(O)c2c1O | 0.626 (active)
O=S(=O)(O)CCS | 0.999 (inactive)
COc1ccc(CN(CCN(C)C)c2ccccn2)cc1 | 0.993 (inactive)

---

measurement description: chemical genetic growth profiling, strain panel (AID 1159580);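 also: tested at 20 µM; growth read once vehicle control cultures reached saturation at 30 °C; 1 = growth at the plate median or of vehicle wells; lower values mean less growth of the strain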
run conditions: S. cerevisiae deletion strains, growth OD, strain TSCII, stronger effect = lower value
Hit rate of the full screen: of about 5,500 compounds, about 2,000 (36%) were called active. Another 18% or so got no clear call; they are omitted. Some of the results follow.
normalized growth: recorded values

compound | normalized growth
O=[N+]([O-])c1ccc(ON=C2CCCCC2)c([N+](=O)[O-])c1 | 0.968
CC(=O)c1ccc(Cl)c(NS(=O)(=O)c2cc(Cl)c(Cl)cc2Cl)c1 | 0.898
CC(C)(C)c1ccc(C(=N)SC(C(=O)C(F)(F)F)c2ccccc2)cc1 (stereo unspecified) | 0.985
CC(C)(C)c1ccc(N/N=C(\C#N)C(N)=O)cc1 | 0.106
CC(=O)/C(C#N)=N\Nc1ccc(F)cc1 | 0.512
N#C/C(=N/Nc1ccc(F)cc1)S(=O)(=O)c1ccc(Cl)cc1 | 0.966

---

normalized growth: recorded values
measurement description: chemical genetic growth profiling, strain panel (AID 1159580);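 also: tested at 20 µM; growth read once vehicle control cultures reached saturation at 30 °C; 1 = growth at the plate median or of vehicle wells; lower values mean less growth of the strain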
run conditions: S. cerevisiae deletion strains, growth OD, locus YOR316C, strain cot1, stronger effect = lower value
Hit rate of the full screen: of about 5,500 compounds, about 2,000 (36%) were called active. Another 18% or so got no clear call; they are omitted. This is one part of the list.

compound | normalized growth
COc1ccc(C(CN(C)C)C2(O)CCCCC2)cc1 (centres undefined) | 0.999
COc1ccccc1-c1coc2cc(O)ccc2c1=O | 1.03
CN1C2C[C@H](OC(=O)[C@H](CO)c3ccccc3)C[C@H]1[C@@H](O)C2 | 1
NC(=O)c1ccc[n+]([C@@H]2O[C@H](COP(=O)([O-])OP(=O)(O)OC[C@H]3O[C@@H](n4cnc5c(N)ncnc54)[C@H](OP(=O)(O)O)[C@@H]3O)[C@@H](O)[C@H]2O)c1 | 0.997
CN1C2CCC1CC(OC(c1ccccc1)c1ccccc1N)C2 (centres undefined) | 1.02
CCN1CCCC(OC(=O)C(c2ccccc2)c2ccccc2)C1 (centres undefined) | 1.01
COc1cc(CNC(=O)CCCC/C=C/C(C)C)ccc1O | 0.987
COC(=O)c1cc(=O)c(O)c2c(O)c(O)ccc2c1 | 0.952
CNCCC(Oc1ccc(C(F)(F)F)cc1)c1ccccc1 (centres undefined) | 1
CCn1cc(C(=O)O)c(=O)c2cc(F)c(N3CCNCC3)nc21 | 1.02
CN1C2CCC1CC(OC(c1ccccc1)c1ccccc1)C2 (centres undefined) | 0.986
O=c1cccc2ccc(O)c(O)c2c1O | 0.881
Oc1cc(O)c2c(c1)OC(c1cc(O)c(O)c(O)c1)C(O)C2c1c(O)cc(O)c2c1OC(c1cc(O)c(O)c(O)c1)C(O)C2c1c(O)cc(O)c2c1OC(c1cc(O)c(O)c(O)c1)C(O)C2 (centres undefined) | 1.01
CCC[C@H](N[C@@H](C)C(=O)N1[C@H](C(=O)O)C[C@@H]2CCCC[C@@H]21)C(=O)OCC | 1.02
O=C1c2ccc(O)cc2O[C@H](c2cc(O)c(O)c(O)c2)[C@H]1O | 1.01
CC1COc2c(N3CCN(C)CC3)c(F)cc3c(=O)c(C(=O)O)cn1c23 (centres undefined) | 1.01
Oc1ccc2c(c1)O[C@H](c1ccc(O)c(O)c1)[C@@H](O)C2 | 0.999
COc1ccc2c(c1)OC/C(=C\c1ccc(OC)c(O)c1)C2=O | 0.882
Cc1ccc(S(=O)(=O)NC(=O)NN2CCCCCC2)cc1 | 0.992
CC(=O)O[C@H]1C[C@@H](OC(C)=O)C(C)(C)C2CC(=O)[C@]3(C)C(CC[C@@]4(C)[C@H](C(=O)O)OC(=O)C5OC543)[C@]21C (some centres undefined) | 0.986
CC(C)NCC(O)COc1cccc2[nH]ccc12 (centres undefined) | 0.98
COc1ccc(C(=O)CC(=O)O)c2c1C=CC(C)(C)O2 | 0.996
COc1cc2c(cc1OC)C(=O)c1ccc(OC)c(OC)c1OCC(=O)C2 | 0.99
C[C@H]1COc2c(N3CCN(C)CC3)c(F)cc3c(=O)c(C(=O)O)cn1c23 | 1.02
COc1ccc(CN(CCN(C)C)c2ccccn2)cc1 | 0.988
CCn1cc(C(=O)O)c(=O)c2cc(F)c(N3CCNC(C)C3)c(F)c21 (centres undefined) | 1
O=C(O)/C=C/c1ccc(O)c(O)c1 | 1
CCCCCCCCC(=O)NCc1ccc(O)c(OC)c1 | 0.98
COc1ccc(-c2coc3cc(O)ccc3c2=O)c(OC)c1O | 0.984
COc1ccc(-c2coc3cc(O)ccc3c2=O)c(OC)c1 | 1.01
C#CCN(C)Cc1ccccc1 | 1.02
C=C[C@@](C)(O)CCC1C(=C)CCC2[C@@](C)(CO)CCC[C@]12C (some centres undefined) | 1.06
Oc1cc(O)c2c(c1)O[C@H](c1ccc(O)c(O)c1)[C@@H](O)C2 | 0.979
COc1ccc2c(c1)OC1(O)COc3cc(OC)c(OC)cc3C1=C2 (centres undefined) | 0.996
COc1ccc(-c2coc3cc(OC)ccc3c2=O)cc1 | 0.928
OCC(O)CN1CCN(c2ccccc2)CC1 (centres undefined) | 0.985
O=C1C(Cl)=C(Cl)C(=O)C(Cl)=C1Cl | 0.677
CC1(C)CCC[C@@]2(C)C1[C@@H](O)C[C@]1(C)C2CC[C@@H]2[C@@]3(C)CC[C@H](C(C)(C)O)[C@@H]3CC[C@@]21C (some centres undefined) | 0.985
Clc1ccc(C(c2ccc(Cl)cc2)C(Cl)(Cl)Cl)cc1 | 1.01
NCCC(O)C(=O)NC1CC(N)C(OC2OC(CN)C(O)C(O)C2N)C(OC2OC(CO)C(O)C2O)C1O (centres undefined) | 0.987
Cc1[nH]c2ccccc2c1CN(C)C | 0.992
COc1ccc(C(c2ccc(OC)cc2)C(Cl)(Cl)Cl)cc1 | 0.995
Cn1c(=O)c2c(ncn2CC(O)CO)n(C)c1=O (centres undefined) | 0.959
CCN(CC)Cc1ccc(Nc2ccnc3cc(Cl)ccc23)cc1O | 0.997

---

normalized growth: recorded values
measurement description: chemical genetic growth profiling, strain panel (AID 1159580);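 also: tested at 20 µM; growth read once vehicle control cultures reached saturation at 30 °C; 1 = growth at the plate median or of vehicle wells; lower values mean less growth of the strain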
run conditions: S. cerevisiae deletion strains, growth OD, locus YER111C, strain swi4, stronger effect = lower value
The whole screen tested about 5,500 compounds, of which about 2,000 (36%) were called active. Inconclusive results (about 18%) are left out. This is one part of the list.
measurement label: normalized growth

compound | measurement label | value
O=C(Oc1cc(O)cc2c1C[C@@H](OC(=O)c1cc(O)c(O)c(O)c1)[C@@H](c1cc(O)c(O)c(O)c1)O2)c1cc(O)c(O)c(O)c1 | normalized growth | 0.974
CC[C@]1(O)CC2CN(CCc3c([nH]c4ccccc34)[C@@](C(=O)OC)(c3cc4c(cc3OC)N(C)[C@H]3[C@@](O)(C(=O)OC)[C@H](OC(C)=O)[C@]5(CC)C=CCN6CC[C@]43[C@@H]65)C2)C1 (stereo partly drawn) | normalized growth | 0.972
CC1(C)S[C@@H]2[C@H](NC(=O)[C@H](N)c3ccccc3)C(=O)N2[C@H]1C(=O)O | normalized growth | 0.96
